Origin of measurements: patent US20210024640A1

# TGT: T1, OX40-his (Homo sapiens (Human), UniProt P43489 29-214, limits assumed)
# T1 construct: Analyte of the Biacore 8K assay; also called Ag OX40-his; Antigen OX40-his; not shown: His tag
# T1 sequence: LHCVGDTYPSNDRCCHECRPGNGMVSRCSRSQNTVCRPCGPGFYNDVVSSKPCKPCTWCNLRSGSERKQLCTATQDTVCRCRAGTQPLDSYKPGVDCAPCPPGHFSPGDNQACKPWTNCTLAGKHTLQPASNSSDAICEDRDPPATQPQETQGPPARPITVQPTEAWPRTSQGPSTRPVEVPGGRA
# ASSAY: SPR Biacore 8K, antibody captured, OX40-his as analyte
Below, each entry is listed with its recorded kon.
Write the value in M⁻¹ s⁻¹ as a bare number.

Solved cases (2 shown):
binder="humanized Ab REMD 277 (VH2-1/VL2-2) (antibody, human IgG1, kappa, V domains shown) VH: EVQLVQSGAEVKKPGESLKISCKGSGYTFTSYVMHWVRQMPGKGLEWMGYINPYNDGTKYNEKFKGQVTISADKSISTAYLQWSSLKASDTAMYYCARYYGSNYAMDYWGQGTMVTVSS VL: EIVMTQSPATLSASPGERVTLSCRASQDIRNYLNWYQQKPGGAVRLLIYYTSRLHSGVPARFSGSGSGTDYTLTISSLEPEDYAVYFCQQGNTLPWTFGQGTKVEIKR" measured_attribute=kon assay_result=28200
binder="humanized Ab REMD 277.1 (VH2-1/VL2-1) (antibody, human IgG1, kappa, V domains shown) VH: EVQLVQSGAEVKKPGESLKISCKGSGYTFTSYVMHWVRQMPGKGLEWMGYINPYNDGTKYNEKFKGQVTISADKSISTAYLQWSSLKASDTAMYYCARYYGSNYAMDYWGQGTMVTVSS VL: EIVLTQSPATLSLSPGERATLSCRASQDIRNYLNWYQQKPGQAPRLLIYYTSRLHSGIPARFSGSGSGTDFTLTISSLEPEDFAVYYCQQGNTLPWTFGQGTKVEIKR" measured_attribute=kon assay_result=61400

# evaluate next
Any idea what its kon is? The binder is humanized Ab REMD 277.2 (VH2-1/VL5BM) (antibody, human IgG1, kappa, V domains shown) VH: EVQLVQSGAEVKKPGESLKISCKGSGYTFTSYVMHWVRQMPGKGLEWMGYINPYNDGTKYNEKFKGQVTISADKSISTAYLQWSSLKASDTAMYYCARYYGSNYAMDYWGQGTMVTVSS VL: DIQMTQSPSSLSASVGDRVTISCRASQDIRNYLNWYQQKPGKTVKLLIYYTSRLHSGVPSRFSGSGSGTDYTFTISSLQPEDIATYFCQQGNTLPWTFGGGTKLEIKR 20000
